Each entry below carries its recorded pEC50.
Molecular target: mouse RORγ (Mus musculus, UniProt P51450)
Construct: mouse, NM_011281.2 and from Ile251 to Lys516; expressed in transfected cells; host or cells: CHO cells (transient co-transfection with pG5-Luc reporter)
Sequence (P51450 251-516): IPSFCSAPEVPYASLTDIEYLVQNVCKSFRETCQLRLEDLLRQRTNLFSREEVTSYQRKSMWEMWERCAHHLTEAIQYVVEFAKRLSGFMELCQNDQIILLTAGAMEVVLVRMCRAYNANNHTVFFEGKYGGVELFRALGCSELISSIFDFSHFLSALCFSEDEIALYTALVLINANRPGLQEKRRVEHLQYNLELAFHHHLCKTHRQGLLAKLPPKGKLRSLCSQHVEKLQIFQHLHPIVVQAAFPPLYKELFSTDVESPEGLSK
Experiment: Luciferase reporter gene assay of inhibitory effect against RORγ transcriptional activity (GAL4-mRORγ plasmid in CHO cells)
Assay type: cell-based
Settings: read-out: LUC EC50 mRORg
pEC50: −log10 of the molar value.
observationType: pEC50

[[record]]
compound = "COc1c(C)ccc(NC(=O)C[C@H](CCCO)c2noc([C@H]3C[C@@H](CC(C)(C)C)C3)c2C2CC2)c1C"
observationtype = "pEC50"
experimentalvalue = "> 5.52"

[[record]]
compound = "Cc1ccc(NC(=O)C[C@H](CCC(=O)O)c2nnn([C@H]3C[C@@H](CC(C)(C)C(C)C)C3)c2C(F)(F)F)c(F)c1"
observationtype = "pEC50"
experimentalvalue = "> 5.52"

[[record]]
compound = "Cc1ccc(NC(=O)[C@H]2CN(C(=O)C(C)C)C[C@@H]2c2nnc([C@H]3C[C@@H](CC(C)(C)C)C3)n2C2CC2)c(C)c1"
observationtype = "pEC50"
experimentalvalue = "> 5.52"

[[record]]
compound = "Cc1cc(NC(=O)C[C@H](CC(=O)O)c2noc([C@H]3C[C@@H](CC(C)C)C3)c2C2CC2)n(C)n1"
observationtype = "pEC50"
experimentalvalue = "> 5.52"

[[record]]
compound = "Cc1cc(F)ccc1NC(=O)[C@@H]1CC(F)(F)C[C@H]1c1nnc(-c2cc(CC(C)C)on2)n1C1CC1"
observationtype = "pEC50"
experimentalvalue = "> 5.52"

[[record]]
compound = "CCOC(=O)/C=C/c1c(CCC(=O)Nc2ccc(C)cc2C)noc1[C@H]1C[C@@H](CC(C)C)C1"
observationtype = "pEC50"
experimentalvalue = "< 5.52"

[[record]]
compound = "Cc1ccc(NC(=O)C[C@@H](CC(C)(C)O)c2nnc([C@H]3C[C@@H](CC(C)C)C3)n2C2CC2)c(C)c1"
observationtype = "pEC50"
experimentalvalue = "< 5.52"

[[record]]
compound = "Cc1ccc(NC(=O)C[C@H](CC(C)C)c2noc(-c3cc(CC(C)C)on3)c2C2CC2)c(C)c1"
observationtype = "pEC50"
experimentalvalue = "> 5.52"

[[record]]
compound = "CC(C)(C)C(F)(F)c1cc(-c2onc([C@H](CCC(=O)O)CC(=O)Nc3ccc(Cl)cc3F)c2C2CC2)no1"
observationtype = "pEC50"
experimentalvalue = "> 5.52"

[[record]]
compound = "Cc1ccc(NC(=O)[C@H]2CN(C(=O)CCC(=O)O)C[C@@H]2c2noc([C@H]3C[C@@H](CC(C)(C)C)C3)c2C2CC2)c(Cl)c1"
observationtype = "pEC50"
experimentalvalue = "> 5.52"

[[record]]
compound = "Cc1ccc(NC(=O)C[C@H](CC(O)C(F)(F)F)c2nnc([C@H]3C[C@@H](CC(C)C)C3)n2C2CC2)c(C)c1 (single isomer, unassigned) [Example F-621]"
observationtype = "pEC50"
experimentalvalue = "> 5.52"

[[record]]
compound = "Cc1cc(NC(=O)C[C@H](CC(=O)O)c2noc([C@H]3C[C@@H](CC(C)C)C3)c2C2CC2)no1"
observationtype = "pEC50"
experimentalvalue = "> 5.52"

[[record]]
compound = "Cc1ccc(NC(=O)C[C@H](OCC(F)(F)F)c2nnc([C@H]3C[C@@H](CC(C)C)C3)n2C2CC2)c(C)c1"
observationtype = "pEC50"
experimentalvalue = "> 5.52"

